For each record, write down the corresponding protein stability index.
B1: ZBED1 (parent)
chain: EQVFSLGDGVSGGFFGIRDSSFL

variants of: B1; experiment: protein stability index of a GFP-peptide fusion (GPS, HEK-293T) (PSI 1-6); higher = more stable; conditions: c terminus: native;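 also: lentivirally expressed fusions sorted by FACS into six bins by GFP to DsRed ratio, PSI derived from sequencing read proportions per bin multiplied by bin number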
One number for each entry.

Consider the reported protein stability index for these variants:
| MACROMOLECULE SEQUENCE | protein stability index |
| --- | --- |
| EQVFSLGDGVSGGFHGIRDSSFL [F15H] | 4.11 |
| EQVFSLGDGVSGGFFGIPDSSFL [R18P] | 3.28 |
| EQVFSLGDGVNGGFFGIRDSSFL [S11N] | 3.63 |
| EQVFSLGDGVSGGFFGKRDSSFL [I17K] | 3.8 |
| FQVFSLGDGVSGGFFGIRDSSFL [E1F] | 2.19 |
| EQVFSLGDGASGGFFGIRDSSFL [V10A] | 3.87 |
| EQVFSLGDGVSGGRFGIRDSSFL [F14R] | 4 |
| EQVFSLGDGVSGEFFGIRDSSFL [G13E] | 4.08 |
| EQVFSLGDGVSGGFFHIRDSSFL [G16H] | 3.56 |
| EQVFSLGDGVSGGFFGIFDSSFL [R18F] | 2.07 |

Respectfully, I request protein stability index for each entry included below.
1. EQVFSLGDGVVGGFFGIRDSSFL [S11V]
2. EQVFSLGDGVSGGFFGIRDSEFL [S21E]
3. EQVFSLGDGVSTGFFGIRDSSFL [G12T]

**A:**
1. 2.9
2. 3.67
3. 3.28
